Recorded values, source patent US7462600B2.

Test system: Streptococcus pneumoniae 1175
Format: cell-based
Conditions: Streptococcus pneumoniae 1175; microtiter broth dilution
For each record, write down the corresponding MIC S. pneumo. 1175.

Tell us which MIC S. pneumo. 1175 value is on record for CCC1OC(=O)C(C)C(=O)C(C)C(OC2OC(C)CC(N(C)C)C2O)C(C)(OC)CC(C)C(=O)C(C)C2N(C3CN(S(=O)(=O)c4cn(C)c(C)n4)C3)C(=O)OC12C (stereo not drawn)
4 µg/mL

Tell us which MIC S. pneumo. 1175 value is on record for CCC1OC(=O)C(C)C(=O)C(C)C(OC2OC(C)CC(N(C)C)C2O)C(C)(OC)CC(C)C(=O)C(C)C2N(C3CN(S(=O)(=O)c4ccc5[nH]ncc5c4)C3)C(=O)OC12C (stereo not drawn)
<0.06 µg/mL

Tell us which MIC S. pneumo. 1175 value is on record for CCC1OC(=O)C(C)C(=O)C(C)C(OC2OC(C)CC(N(C)C)C2O)C(C)(OC)CC(C)C(=O)C(C)C2N(C3CN(S(=O)(=O)c4ccc(-c5ccn[nH]5)cc4)C3)C(=O)OC12C (stereo not drawn)
<0.06 µg/mL
